- Tested on: Radical scavenging activity
- experimental-details: Antioxidant activity assessed as DPPH free radical scavenging activity after 30 mins
- Format: functional
- details: read-out: IC50
pIC50: −log10 of the molar value.
attribute-measured: pIC50

A: COc1cc(/C=C/C(=O)/C=C/c2ccc(O)c(OC)c2)ccc1O
B: COc1cc(/C=C/C(=O)CC(=O)/C=C/c2ccc(O)c(OC)c2)ccc1O
Query :: Field: lower pIC50 | Options: A / B // return label of chosen record
Result :: A

----------
- Tested on: Radical scavenging activity
- experimental-details: Antioxidant activity assessed as DPPH free radical scavenging activity after 30 mins
- Assay type: functional
- details: read-out: IC50
Listing of recorded IC50 by entry.

Consider the following illustrative entries.
O=C(/C=C/c1ccccc1O)/C=C/c1ccccc1O = > 500 µM
O=c1c(O)c(-c2ccc(O)c(O)c2)oc2cc(O)cc(O)c12 = 41.8 µM

Let us move to another entry and its IC50.
Query :: Name the recorded IC50 of the molecule listed here: O=C(/C=C/c1ccc(O)cc1)/C=C/c1ccc(O)cc1
Result :: > 500 µM
